Recorded values, source patent US20180298010A1.

I'd appreciate it if you could supply pIC50 values for the items below.
# ASSAY SYSTEM: PRMT5/MEP50 (Homo sapiens, UniProt O14744)
# Construct: Flag-PRMT5; 6His-MEP50
# Sequence (O14744 with tags, fused parts or gaps): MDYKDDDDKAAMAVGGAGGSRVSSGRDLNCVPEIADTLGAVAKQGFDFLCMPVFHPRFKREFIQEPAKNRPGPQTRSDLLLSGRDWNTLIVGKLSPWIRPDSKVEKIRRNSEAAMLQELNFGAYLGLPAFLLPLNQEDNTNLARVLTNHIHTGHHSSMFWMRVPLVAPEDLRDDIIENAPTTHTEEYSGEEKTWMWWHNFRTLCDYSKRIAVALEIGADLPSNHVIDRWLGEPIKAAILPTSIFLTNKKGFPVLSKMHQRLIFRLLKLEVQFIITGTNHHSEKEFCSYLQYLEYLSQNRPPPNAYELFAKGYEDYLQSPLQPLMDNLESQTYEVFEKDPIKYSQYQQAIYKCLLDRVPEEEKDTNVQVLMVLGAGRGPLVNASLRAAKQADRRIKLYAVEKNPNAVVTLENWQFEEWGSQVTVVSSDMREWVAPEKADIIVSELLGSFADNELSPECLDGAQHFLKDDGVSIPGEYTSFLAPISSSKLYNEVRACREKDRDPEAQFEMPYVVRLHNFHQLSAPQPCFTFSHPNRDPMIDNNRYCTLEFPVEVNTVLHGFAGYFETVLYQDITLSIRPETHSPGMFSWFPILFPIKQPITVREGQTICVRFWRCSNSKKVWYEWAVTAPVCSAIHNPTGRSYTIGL
# Sequence (Q9BQA1 with tags, fused parts or gaps partner): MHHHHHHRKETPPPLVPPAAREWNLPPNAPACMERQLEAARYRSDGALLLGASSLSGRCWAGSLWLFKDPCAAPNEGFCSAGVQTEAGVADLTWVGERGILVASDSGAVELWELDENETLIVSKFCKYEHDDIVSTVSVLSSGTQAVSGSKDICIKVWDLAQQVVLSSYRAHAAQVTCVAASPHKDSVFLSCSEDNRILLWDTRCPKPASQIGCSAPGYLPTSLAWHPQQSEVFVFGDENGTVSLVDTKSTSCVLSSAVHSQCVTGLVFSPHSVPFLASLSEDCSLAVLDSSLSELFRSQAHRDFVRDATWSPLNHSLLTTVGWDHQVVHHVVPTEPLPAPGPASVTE
# ASSAY: PRMT5 Biochemical Assay (PRMT5/MEP50 enzyme assay on peptide substrate, 3H-SAM Flashplate)
pIC50: −log10 of the molar value.

pIC50 measured on O=C(Nc1cccc(OCC(O)CN2CCc3ccccc3C2)c1)c1cncnc1 (stereo not drawn) = 5.00 to 6.00

pIC50 measured on OC(COc1ccccc1C1CCCCC1)CN1CCc2ccccc2C1 (stereo not drawn) = 5.00 to 6.00

pIC50 measured on CN(C(=O)c1cccnc1)c1cccc(OCC(O)CN2CCc3ccccc3C2)c1 (stereo not drawn) = 5.00 to 6.00

pIC50 measured on OC(COc1cccc(CN2CCCCC2)c1)CN1CCc2ccccc2C1 (stereo not drawn) = 5.00 to 6.00

pIC50 measured on CC(=O)N1CCC(n2cnc3ccc(-c4ccnc(NCC(O)CN5CCc6ccccc6C5)c4)cc32)CC1 (stereo not drawn) = 6.00 to 7.00

pIC50 measured on Cn1ncc2ccc(-c3cc(COCC(O)CN4CCc5ccccc5C4)on3)cc21 (stereo not drawn) = 6.00 to 7.00

pIC50 measured on Cn1cnc2ccc(-c3cc(NCC(O)CN4CCc5ccccc5C4)ccn3)cc21 (stereo not drawn) = 6.00 to 7.00

pIC50 measured on OC(COC1CCN(Cc2ccccc2)C1)CN1CCc2ccccc2C1 (stereo not drawn) = 5.00 to 6.00

pIC50 measured on OC(COc1cccc(-c2ccncc2)c1)CN1CCc2ccccc2C1 (stereo not drawn) = 5.00 to 6.00

pIC50 measured on Cn1ncc2c1CN(c1cccc(OCC(O)CN3CCc4ccccc4C3)c1)CC2 (stereo not drawn) = 6.00 to 7.00

pIC50 measured on CC(=O)N1CCC(n2cnc3cnc(-c4cccc(OCC(O)CN5CCc6ccccc6C5)c4)nc32)CC1 (stereo not drawn) = 6.00 to 7.00

pIC50 measured on O=C(c1cccc(-c2cccc(OCC(O)CN3CCc4ccccc4C3)c2)c1)N1CCOCC1 (stereo not drawn) = 6.00 to 7.00

pIC50 measured on OC(COCC1CCCO1)CN1CCc2ccccc2C1 (stereo not drawn) = 4.40 to 5.00

pIC50 measured on Cc1ccc2c(c1)CN(CC(O)COc1cccc(-c3ccc4ncn(C)c4c3)c1)CC2 (stereo not drawn) = 5.00 to 6.00

pIC50 measured on CC(C)n1cnc2ccc(-c3cccc(OCC(O)CN4CCc5ccccc5C4)c3)cc21 (stereo not drawn) = 6.00 to 7.00

pIC50 measured on CN(C)c1ccc(-c2cccc(OCC(O)CN3CCc4ccccc4C3)c2)cc1 (stereo not drawn) = 6.00 to 7.00

pIC50 measured on COc1cccc2c1CCN(CC(O)COc1cccc(-c3ccc4ncn(C)c4c3)c1)C2 (stereo not drawn) = 5.00 to 6.00

pIC50 measured on OC(COc1cccc(-c2ccc(C(F)(F)F)cc2Cl)c1)CN1CCc2ccccc2C1 (stereo not drawn) = 6.00 to 7.00

###

# ASSAY SYSTEM: PRMT5/MEP50 (Homo sapiens)
# Construct: Flag-PRMT5; 6His-MEP50
# ASSAY: PRMT5 Biochemical Assay (PRMT5/MEP50 enzyme assay on peptide substrate, 3H-SAM Flashplate)
pIC50: −log10 of the molar value.
METRIC: pIC50

pIC50 measured on OC(CNc1cccc(CNC2CCCC2)c1)CN1CCc2ccccc2C1 (stereo not shown) = 6.00 to 7.00

pIC50 measured on OC(COc1cccc(-c2ccc(Cl)cc2)c1)CN1CCc2ccccc2C1 (stereo not shown) = 5.00 to 6.00

pIC50 measured on CN1CCN(C(=O)Cn2ccc3cnc(-c4cccc(OCC(O)CN5CCc6ccccc6C5)c4)nc32)CC1 (stereo not shown) = 6.00 to 7.00

pIC50 measured on Cc1ccncc1-c1cccc(OCC(O)CN2CCc3ccccc3C2)c1 (stereo not shown) = 6.00 to 7.00

pIC50 measured on CCC1c2ccccc2CCN1CC(O)COc1cccc(-c2ccc3ncn(C)c3c2)c1 (stereo not shown) = 6.00 to 7.00

pIC50 measured on OC(COCc1ccc(OCc2ccccc2)cc1)CN1CCc2ccccc2C1 (stereo not shown) = 5.00 to 6.00

pIC50 measured on Cc1nn(-c2ccccc2)c(C)c1COCC(O)CN1CCc2ccccc2C1 (stereo not shown) = 5.00 to 6.00

pIC50 measured on COC(COc1cccc(CNC2CCCC2)c1)CN1CCc2ccccc2C1 (stereo not shown) = 5.00 to 6.00

pIC50 measured on OC(COCC1CC1)CN1CCc2ccccc2C1 (stereo not shown) = 5.00 to 6.00

pIC50 measured on OC(COCc1ccncc1)CN1CCc2ccccc2C1 (stereo not shown) = 4.40 to 5.00

pIC50 measured on OC(COc1cccc2ccc(N3CCOCC3)nc12)CN1CCc2ccccc2C1 (stereo not shown) = 5.00 to 6.00

pIC50 measured on Cn1cc(-c2cccc(OCC(O)CN3CCc4ccccc4C3)c2)cn1 (stereo not shown) = 5.00 to 6.00

pIC50 measured on CC(C)(C)OC(=O)N1CC(OCC(O)CN2CCc3ccccc3C2)C1 (stereo not shown) = 5.00 to 6.00

pIC50 measured on Cn1cnc2ccc(-c3cc(NCC(O)CN4CCc5ccccc5C4)ncn3)cc21 (stereo not shown) = 6.00 to 7.00

pIC50 measured on O=C(c1ccc(Cn2nccc2-c2ccc(OCC(O)CN3CCc4ccccc4C3)cc2)cc1)N1CCCC1 (stereo not shown) = 6.00 to 7.00

pIC50 measured on OC(COc1cccc(C2CCCCC2)c1)CN1CCc2ccccc2C1 (stereo not shown) = 5.00 to 6.00

pIC50 measured on OC(COc1cccc(CNC2CCOCC2)c1)CN1CCc2ccccc2C1 (stereo not shown) = 6.00 to 7.00

pIC50 measured on OC(COc1cccc(-c2ccccc2F)c1)CN1CCc2ccccc2C1 (stereo not shown) = 6.00 to 7.00

pIC50 measured on O=C(Nc1cccc(OCC(O)CN2CCc3ccccc3C2)c1)c1cocn1 (stereo not shown) = 5.00 to 6.00

pIC50 measured on CC(C)(C)OC(=O)N1CCC(OCC(O)CN2CCc3ccccc3C2)C1 (stereo not shown) = 5.00 to 6.00

pIC50 measured on OCc1cccc(-c2cccc(OCC(O)CN3CCc4ccccc4C3)c2)c1 (stereo not shown) = 6.00 to 7.00

pIC50 measured on OC(COc1cccc(CNC2CCCC2)c1)CN1CCc2ccccc2C1 (stereo not shown) = 6.00 to 7.00

pIC50 measured on CN(C(=O)c1cn(C)cn1)c1cccc(OCC(O)CN2CCc3ccccc3C2)c1 (stereo not shown) = 5.00 to 6.00

pIC50 measured on Cc1ccc(-c2cccc(OCC(O)CN3CCc4ccccc4C3)c2)cn1 (stereo not shown) = 5.00 to 6.00

pIC50 measured on OC(COC1Cc2ccccc2C1)CN1CCc2ccccc2C1 (stereo not shown) = 5.00 to 6.00

pIC50 measured on OC(COCc1ccccc1)CN1CCc2ccccc2C1 (stereo not shown) = 4.40 to 5.00

pIC50 measured on CC(C(O)COc1cccc(CNC2CCCC2)c1)N1CCc2ccccc2C1 (stereo not shown) = 5.00 to 6.00

pIC50 measured on OC(COc1cccc(CNc2cc[nH]n2)c1)CN1CCc2ccccc2C1 (stereo not shown) = 6.00 to 7.00

pIC50 measured on OC(COc1cccc(-c2cncnc2)c1)CN1CCc2ccccc2C1 (stereo not shown) = 5.00 to 6.00

pIC50 measured on CN(C(=O)c1cncn1C)c1cccc(OCC(O)CN2CCc3ccccc3C2)c1 (stereo not shown) = 5.00 to 6.00

pIC50 measured on Cn1ncc2cnc(-c3cccc(OCC(O)CN4CCc5ccccc5C4)c3)cc21 (stereo not shown) = 6.00 to 7.00

pIC50 measured on OC(CCc1cccc(CNC2CCCC2)c1)CN1CCc2ccccc2C1 (stereo not shown) = 4.40 to 5.00

pIC50 measured on OC(COc1ccccc1N1CCNCC1)CN1CCc2ccccc2C1 (stereo not shown) = 4.40 to 5.00

pIC50 measured on O=C(Cn1ccc2cnc(-c3cccc(OCC(O)CN4CCc5ccccc5C4)c3)nc21)N1CCCCC1 (stereo not shown) = 6.00 to 7.00

pIC50 measured on Cn1nccc1C(=O)Nc1cccc(OCC(O)CN2CCc3ccccc3C2)c1 (stereo not shown) = 5.00 to 6.00

pIC50 measured on OC(COc1cccc(-c2ccc3ncoc3c2)c1)CN1CCc2ccccc2C1 (stereo not shown) = 6.00 to 7.00

pIC50 measured on OC(COc1cccc(-c2cncc(F)c2)c1)CN1CCc2ccccc2C1 (stereo not shown) = 5.00 to 6.00
